Source listed as paper PMC10569036.

- RUN DESCRIPTION: shake flask on a mixture of 185; loss from the water phase only; LC-Orbitrap peak areas
- CONDITION SUMMARY: room
Mark True only when log partition n-undecane / HPLC water, unbuffered, traces of methanol / DMSO stays strictly below -1 log10. Values equal to the cut-off are False.

[[record]]
compound = "O=C(c1ccccc1)c1ccc(O)cc1O"
class = "True"

[[record]]
compound = "Cc1ccc(N)c(S(=O)(=O)O)c1"
class = "False"

[[record]]
compound = "CN/C(=N/[N+](=O)[O-])NCC1CCOC1 (stereo not drawn)"
class = "True"

[[record]]
compound = "Oc1c(Cl)ccc(Cl)c1Cl"
class = "False"

[[record]]
compound = "O=C(Nc1ccccc1-c1ccc(Cl)cc1)c1cccnc1Cl"
class = "False"

[[record]]
compound = "CCOc1ccc2[nH]cc(C(=O)NCc3ccccc3)c(=O)c2n1"
class = "True"


----------
Attribute: log partition dichloromethane / HPLC water, unbuffered, traces of methanol / DMSO
- RUN DESCRIPTION: shake flask on a mixture of 185; loss from the water phase only; LC-Orbitrap peak areas
- CONDITION SUMMARY: room
EXPERIMENTAL READOUT: log partition dichloromethane / HPLC water, unbuffered, traces of methanol / DMSO

[[record]]
molecule = "CCCCCCC(O)CCCCCCCCCCC(=O)OC (stereo not drawn)"
value_measured = "-1.47 log10"

[[record]]
molecule = "c1coc(-c2nc3ccccc3[nH]2)c1"
value_measured = "1.025 log10"

[[record]]
molecule = "CCC(C)(CC)c1cc(NC(=O)c2c(OC)cccc2OC)on1"
value_measured = "2.835 log10"

[[record]]
molecule = "CCCCNS(=O)(=O)c1ccc(C)cc1"
value_measured = "1.83 log10"

[[record]]
molecule = "CCCOC(=O)c1ccc(C(=O)OCCC)nc1"
value_measured = "1.399 log10"

[[record]]
molecule = "CC(C)N1C(=O)c2ccccc2NS1(=O)=O"
value_measured = "0.004436 log10"

[[record]]
molecule = "Cn1cnc([N+](=O)[O-])c1Sc1ncnc2nc[nH]c12"
value_measured = "0.2139 log10"

[[record]]
molecule = "Cc1cc(C)nc(NS(=O)(=O)c2ccc(N)cc2)n1"
value_measured = "-0.3816 log10"

[[record]]
molecule = "O=C(c1ccccc1)c1ccc(O)cc1O"
value_measured = "1.668 log10"

[[record]]
molecule = "CCCCC(CC)C(=O)OCCOCCOCCOCCOC(=O)C(CC)CCCC (stereo not drawn)"
value_measured = "-0.03133 log10"

[[record]]
molecule = "CC(C)(C)c1ccc(O)c(O)c1"
value_measured = "-0.4317 log10"

[[record]]
molecule = "CCCN(CCC)c1c([N+](=O)[O-])cc(C(C)C)cc1[N+](=O)[O-]"
value_measured = "-0.415 log10"


----------
- RUN DESCRIPTION: shake flask on a mixture of 185; loss from the water phase only; LC-Orbitrap peak areas
- CONDITION SUMMARY: room
Mark TRUE only when log partition oleylalcohol / HPLC water, unbuffered, traces of methanol / DMSO stays strictly below 0.5 log10. Values equal to the cut-off are FALSE.

[[record]]
compound = "CN(C)c1ccc(Cc2ccc(N(C)C)cc2)cc1"
class = "TRUE"

[[record]]
compound = "Cc1cc(SCc2sc(-c3ccc(C(F)(F)F)c(F)c3)nc2C)ccc1OCC(=O)O"
class = "TRUE"

[[record]]
compound = "Nc1nc(Cl)nc2c1ncn2[C@H]1C[C@H](O)[C@@H](CO)O1"
class = "TRUE"

[[record]]
compound = "Cc1ccc([N+](=O)[O-])cc1S(=O)(=O)O"
class = "FALSE"

[[record]]
compound = "O=C(O)c1ccccc1C(c1ccc(O)cc1)c1ccc(O)cc1"
class = "TRUE"

[[record]]
compound = "Nc1ccc(/N=N/c2ccccc2)cc1"
class = "FALSE"

[[record]]
compound = "O=C(O)CCN(C1(C(=O)NO)CCCC1)S(=O)(=O)c1ccc(Oc2ccc(F)cc2)cc1"
class = "FALSE"

[[record]]
compound = "CCCCCCC(O)CCCCCCCCCCC(=O)OC (centres unmarked)"
class = "TRUE"

[[record]]
compound = "CCOc1ccc2c(c1)C(C)CC(C)(C)N2 (centres unmarked)"
class = "FALSE"

[[record]]
compound = "C=CC(=O)OCC1CC2CC1C1CCC(COC(=O)C=C)C21 (centres unmarked)"
class = "TRUE"

[[record]]
compound = "C#CC(C)(C)NC(=O)c1cc(Cl)cc(Cl)c1"
class = "FALSE"


----------
- RUN DESCRIPTION: shake flask on a mixture of 185; loss from the water phase only; LC-Orbitrap peak areas
- CONDITION SUMMARY: room
Attribute: log partition toluene / HPLC water, unbuffered, traces of methanol / DMSO
EXPERIMENTAL READOUT: log partition toluene / HPLC water, unbuffered, traces of methanol / DMSO (log10)

[[record]]
compound = "O=C1C=CC(=O)N1c1ccc(Cc2ccc(N3C(=O)C=CC3=O)cc2)cc1"
unit_of_measurement = "log10"
value_measured = 0.01296

[[record]]
compound = "COC(=O)c1ccc(C(=O)OC)c(C(=O)OC)c1"
unit_of_measurement = "log10"
value_measured = 1.185

[[record]]
compound = "CCCCC(CC)COC(=O)c1ccccc1C(=O)O (centres unmarked)"
unit_of_measurement = "log10"
value_measured = -0.2474

[[record]]
compound = "CC(C)(C#N)Nc1nc(Cl)nc(NC2CC2)n1"
unit_of_measurement = "log10"
value_measured = 1.234

[[record]]
compound = "COc1ccccc1/C=C/C=O"
unit_of_measurement = "log10"
value_measured = 0.2589

[[record]]
compound = "CC(C)(C)c1ccc(O)c(O)c1"
unit_of_measurement = "log10"
value_measured = -0.3594

[[record]]
compound = "CCCCCCC(O)CCCCCCCCCCC(=O)OC (centres unmarked)"
unit_of_measurement = "log10"
value_measured = -1.19

[[record]]
compound = "CCOC(=O)CC(=O)c1ccccc1"
unit_of_measurement = "log10"
value_measured = -0.3454

[[record]]
compound = "Nc1ccc(/N=N/c2ccccc2)cc1"
unit_of_measurement = "log10"
value_measured = 0.9966

[[record]]
compound = "Cc1ccc([N+](=O)[O-])cc1S(=O)(=O)O"
unit_of_measurement = "log10"
value_measured = 1.703

[[record]]
compound = "CCCCNS(=O)(=O)c1ccccc1"
unit_of_measurement = "log10"
value_measured = -0.1107

[[record]]
compound = "OCCN(CCO)c1ccccc1"
unit_of_measurement = "log10"
value_measured = -0.4224

[[record]]
compound = "c1ccc(CCCc2ccncc2)cc1"
unit_of_measurement = "log10"
value_measured = -0.2508

[[record]]
compound = "CN1C(=O)CCS(=O)(=O)C1c1ccc(Cl)cc1 (centres unmarked)"
unit_of_measurement = "log10"
value_measured = 4.586

[[record]]
compound = "O=C(Nc1ccccc1-c1ccc(Cl)cc1)c1cccnc1Cl"
unit_of_measurement = "log10"
value_measured = 3.533

[[record]]
compound = "CCc1nn(C)c(C(=O)NCc2ccc(C(C)(C)C)cc2)c1Cl"
unit_of_measurement = "log10"
value_measured = 1.132

[[record]]
compound = "Nc1nc(Cl)nc2c1ncn2[C@H]1C[C@H](O)[C@@H](CO)O1"
unit_of_measurement = "log10"
value_measured = -0.8939

[[record]]
compound = "CC(C)C1(C)N=C(c2nc3ccccc3cc2C(=O)O)NC1=O (centres unmarked)"
unit_of_measurement = "log10"
value_measured = -1.419

[[record]]
compound = "CC(=O)CCc1ccc(OC(C)=O)cc1"
unit_of_measurement = "log10"
value_measured = -0.2898

[[record]]
compound = "c1coc(-c2nc3ccccc3[nH]2)c1"
unit_of_measurement = "log10"
value_measured = 0.5283

[[record]]
compound = "FC(F)C(F)(F)OCC(Cn1cncn1)c1ccc(Cl)cc1Cl (centres unmarked)"
unit_of_measurement = "log10"
value_measured = 1.159

[[record]]
compound = "OC(c1ccc(F)cc1)(c1cncnc1)c1ccccc1Cl (centres unmarked)"
unit_of_measurement = "log10"
value_measured = 2.565

[[record]]
compound = "CCCCc1ccc(O)cc1"
unit_of_measurement = "log10"
value_measured = -0.3739

[[record]]
compound = "CCCCOC(=O)C(C)Oc1ccc(Oc2ccc(C(F)(F)F)cn2)cc1 (centres unmarked)"
unit_of_measurement = "log10"
value_measured = -0.7173

[[record]]
compound = "CCCN(CCC)c1c([N+](=O)[O-])cc(C(C)C)cc1[N+](=O)[O-]"
unit_of_measurement = "log10"
value_measured = 0.0275

[[record]]
compound = "CCCC1COC(Cn2cncn2)(c2ccc(Cl)cc2Cl)O1 (centres unmarked)"
unit_of_measurement = "log10"
value_measured = 0.07569

[[record]]
compound = "O=C1OC(=O)C2C3C=CC(C3)C12 (centres unmarked)"
unit_of_measurement = "log10"
value_measured = 0.5941

[[record]]
compound = "Cn1cnc([N+](=O)[O-])c1Sc1ncnc2nc[nH]c12"
unit_of_measurement = "log10"
value_measured = -0.3549

[[record]]
compound = "C=C(C)C(=O)OCCOCCOC(=O)C(=C)C"
unit_of_measurement = "log10"
value_measured = -0.03291

[[record]]
compound = "CN1COCN(Cc2cnc(Cl)s2)C1=N[N+](=O)[O-]"
unit_of_measurement = "log10"
value_measured = -0.2331

[[record]]
compound = "O=C(OC1CCCCC1)c1ccccc1C(=O)OC1CCCCC1"
unit_of_measurement = "log10"
value_measured = -1.067

[[record]]
compound = "CN/C(=N/[N+](=O)[O-])NCC1CCOC1 (centres unmarked)"
unit_of_measurement = "log10"
value_measured = -0.3042

[[record]]
compound = "COC(=O)C(C)N(C(=O)c1ccco1)c1c(C)cccc1C (centres unmarked)"
unit_of_measurement = "log10"
value_measured = 1.918

[[record]]
compound = "CCOc1ccc2[nH]cc(C(=O)NCc3ccccc3)c(=O)c2n1"
unit_of_measurement = "log10"
value_measured = -0.2525

[[record]]
compound = "N#CC(c1ccccc1)c1ccccc1"
unit_of_measurement = "log10"
value_measured = 0.1711

[[record]]
compound = "O=C(O)CCN(C1(C(=O)NO)CCCC1)S(=O)(=O)c1ccc(Oc2ccc(F)cc2)cc1"
unit_of_measurement = "log10"
value_measured = -0.3191

[[record]]
compound = "CC(C)c1cccc(O)c1"
unit_of_measurement = "log10"
value_measured = -0.5154

[[record]]
compound = "NC(=O)N/N=C/c1ccc([N+](=O)[O-])o1"
unit_of_measurement = "log10"
value_measured = -0.2455

[[record]]
compound = "Cc1cc(C)nc(NS(=O)(=O)c2ccc(N)cc2)n1"
unit_of_measurement = "log10"
value_measured = -1.077

[[record]]
compound = "CO/N=C(/C1=NOCCO1)c1ccccc1Oc1ncnc(Oc2ccccc2Cl)c1F"
unit_of_measurement = "log10"
value_measured = 1.832

[[record]]
compound = "O=P(OC(CCl)CCl)(OC(CCl)CCl)OC(CCl)CCl"
unit_of_measurement = "log10"
value_measured = 0.1777

[[record]]
compound = "CN(C1CCCCC1)S(=O)(=O)c1ccccc1N"
unit_of_measurement = "log10"
value_measured = 0.9027

[[record]]
compound = "CC(C)N1C(=O)c2ccccc2NS1(=O)=O"
unit_of_measurement = "log10"
value_measured = -0.9524

[[record]]
compound = "CCCCC(O)(Cn1cncn1)c1ccc(Cl)cc1Cl (centres unmarked)"
unit_of_measurement = "log10"
value_measured = 4.525

[[record]]
compound = "CC(=O)Nc1ccc(C)cc1C"
unit_of_measurement = "log10"
value_measured = 0.01564

[[record]]
compound = "c1ccc2[nH]c(-c3cscn3)nc2c1"
unit_of_measurement = "log10"
value_measured = 0.9569

[[record]]
compound = "Nc1cc2c3c(c1)C(c1ccccc1)=N[C@@H](NC(=O)c1cccnc1)C(=O)N3CC2"
unit_of_measurement = "log10"
value_measured = 0.4674

[[record]]
compound = "CCNC(=O)C1CC(C)CCC1C(C)C (centres unmarked)"
unit_of_measurement = "log10"
value_measured = -0.1964

[[record]]
compound = "C#CC(C)(C)NC(=O)c1cc(Cl)cc(Cl)c1"
unit_of_measurement = "log10"
value_measured = 2.779

[[record]]
compound = "CCc1ccc(C(=O)NN(C(=O)c2cc(C)cc(C)c2)C(C)(C)C)cc1"
unit_of_measurement = "log10"
value_measured = 1.17

